Target Under Test: mAChR M4 (UniProt P08173)
Construct: hM1 and hM4 cDNAs were purchased from Missouri S&T cDNA Resource
Sequence (P08173 1-479): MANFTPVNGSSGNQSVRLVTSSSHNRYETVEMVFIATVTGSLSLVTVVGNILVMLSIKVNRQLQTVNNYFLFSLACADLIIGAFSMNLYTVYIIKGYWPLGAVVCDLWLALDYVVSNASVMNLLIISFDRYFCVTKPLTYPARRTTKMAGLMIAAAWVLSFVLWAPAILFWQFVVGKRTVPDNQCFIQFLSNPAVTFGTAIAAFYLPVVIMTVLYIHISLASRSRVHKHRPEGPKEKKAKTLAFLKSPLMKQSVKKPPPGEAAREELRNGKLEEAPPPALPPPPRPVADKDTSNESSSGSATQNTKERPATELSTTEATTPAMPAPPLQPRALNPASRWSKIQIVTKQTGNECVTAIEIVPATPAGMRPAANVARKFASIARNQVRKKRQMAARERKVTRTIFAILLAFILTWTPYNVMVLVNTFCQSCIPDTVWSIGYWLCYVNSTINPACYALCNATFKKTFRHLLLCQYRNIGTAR
Method Summary: mAChR M4 cell-based functional assay (calcium mobilization, Fluo-4, FDSS)
Experimental Parameters: % ACh maximum at 30 μM
Reported Endpoint: Emax (%)*

[1] Cc1cc(C)c2c(n1)sc1c(NC3CN(C(=O)OC(C)(C)C)C3)nn(C)c12
[2] COc1ccc(CNc2nn(C)c3c2sc2nc(C)cc(C)c23)c(OC)c1
Asked: // which entry reports the smaller Emax (%)*, 1 or 2 ? Write down the label of the entry you select.
Given back: 2

* * *

Target Under Test: mAChR M4 (UniProt P08173)
Construct: hM1 and hM4 cDNAs were purchased from Missouri S&T cDNA Resource
Method Summary: mAChR M4 cell-based functional assay (calcium mobilization, Fluo-4, FDSS)
Experimental Parameters: positive allosteric modulator activity, EC20 acetylcholine response, CHO-K1 cells
Reported Endpoint: pEC50

Cc1ccc2c(n1)sc1c(NCc3ccco3)nn(C)c12 = 5.82
COc1ccc(CNc2nn(C)c3c2sc2nc(C)ccc23)cc1 = 6.02
Cc1cc(C)c2c(n1)sc1c(NCc3ccco3)nn(CCO)c12 = 6.92
Cc1ccnc2sc3c(NCc4ccco4)nn(C)c3c12 = 6.00
Cc1cc(C)c2c(n1)sc1c(NCc3ccccc3)n[nH]c12 = 5.97
Cc1ccnc2sc3c(NCC4CC4)nn(C)c3c12 [Compound 69] = 5.89
Cc1cc(C)c2c(n1)sc1c(NCc3ccc(F)cc3)n[nH]c12 = 5.99
CC(=O)N1CCC(CNc2nn(C)c3c2sc2nc(C)cc(C)c23)CC1 = 6.00
Cc1cc(C)c2c(n1)sc1c(NCc3cccc4c3OCO4)nn(C)c12 = 6.72
Cc1ccc2c(n1)sc1c(NCc3ccccc3)nn(C)c12 = 6.08
Cc1cc(C)c2c(n1)sc1c(NC3CCCSC3)nn(CCO)c12 (centres unmarked) = 6.37
Cc1cc(C)c2c(n1)sc1c(NCc3ccco3)n[nH]c12 = 5.92
Cc1cc(C)c2c(n1)sc1c(NCc3ccccn3)nn(C)c12 = 6.27
Cc1cc(C)c2c(n1)sc1c(NCc3ccoc3)nn(C)c12 = 7.16
Cc1cc(C)c2c(n1)sc1c(NC3CCOCC3)nn(CCO)c12 = 5.72
Cc1nc2sc3c(NCc4ccco4)n[nH]c3c2c(C)c1Cl = 5.85
Cc1cc(C)c2c(n1)sc1c(NC3CCCC3)nn(CCO)c12 = 6.70
Cc1ccc2c(n1)sc1c(NCc3ccc(Cl)cc3)n[nH]c12 = 5.47
COc1ccc(CNc2nn(C)c3c2sc2nc(C)cc(C)c23)cc1 = 6.66
Cc1cc(C)c2c(n1)sc1c(NC3CCSC3)nn(CCO)c12 (centres unmarked) = 6.70
Cc1csc(CNc2nn(C)c3c2sc2nc(C)cc(C)c23)n1 = 6.28
Cc1cc(C)c2c(n1)sc1c(NCc3ccco3)nn(C)c12 = 6.96
